Where these numbers come from: patent US9566312B2

System: peripheral blood mononuclear cells (PBMC)
Assay: Anti-proliferative or immunosuppressive activity, BrdU incorporation in PHA-stimulated PBMC
Assay type: cell-based
Details: PHA 3 μg/ml, 60 hour compound treatment; read-out: EMV PBMC IC50
The compounds listed here are annotated with their IC50.
Write down the numeric answer in µM and omit the unit.

-- ask Could you tell me which IC50 is on file for C/C=C/C[C@@H](C)[C@@H](O)[C@H]1C(=O)N[C@@H](CC)C(=O)N(C)[C@H](C(C)C)C(=O)N(C)C([C@H](C)COC)C(=O)N[C@@H](C(C)C)C(=O)N(C)[C@@H](CC(C)C)C(=O)N[C@@H](C)C(=O)N[C@H](C)C(=O)N(C)[C@@H](CC(C)C)C(=O)N(C)[C@@H](CC(C)C)C(=O)N(C)[C@@H](C(C)C)C(=O)N1C (stereo in doubt) ?
-- reply 13.2

-- ask Could you tell me which IC50 is on file for C/C=C/C[C@@H](C)[C@@H](O)[C@H]1C(=O)N[C@@H](CC)C(=O)N(C)[C@H](C)C(=O)N(C)[C@@H]([C@H](C)CCN2CCOCC2)C(=O)N[C@@H](C(C)C)C(=O)N(C)[C@@H](CC(C)C)C(=O)N[C@@H](C)C(=O)N[C@H](C)C(=O)N(C)[C@@H](CC(C)C)C(=O)N(C)[C@@H](CC(C)C)C(=O)N(C)[C@@H](C(C)C)C(=O)N1C (stereo in doubt) ?
-- reply 16.2

-- ask Could you tell me which IC50 is on file for "C/C=C/C[C@@H](C)[C@@H](O)[C@H]1C(=O)N[C@@H](CC)C(=O)N(C)[C@H](C)C(=O)N(C)[C@@H]([C@H](C)COC(=O)N(C)C2CCN(C)CC2)C(=O)N[C@@H](C(C)C)C(=O)N(C)[C@@H](CC(C)C)C(=O)N[C@@H](C)C(=O)N[C@H](C)C(=O)N(C)[C@@H](CC(C)C)C(=O)N(C)[C@@H](CC(C)C)C(=O)N(C)[C@@H](C(C)C)C(=O)N1C" ?
-- reply 9.5

###

Target: cyclophilin A (CypA) (Homo sapiens (Human))
Sequence (P62937 whole entry): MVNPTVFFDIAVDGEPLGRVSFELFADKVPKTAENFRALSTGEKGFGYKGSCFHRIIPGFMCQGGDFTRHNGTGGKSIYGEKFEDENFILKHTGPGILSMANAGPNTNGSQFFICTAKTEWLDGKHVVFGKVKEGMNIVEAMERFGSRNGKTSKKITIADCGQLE
Assay: Inhibitor binding to cyclophilin proteins by SPR, CypA;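 further: Single-cycle kinetics on a Biacore T200, compound injected at several concentrations for 1 min each at 50 µL/min, then 10 min dissociation, in HEPES pH 7.4 buffer with 3% DMSO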
Set-up: unit not given here
Conditions: 1:1 binding model
Starred links: 1 amine or outer side, 2 acyl side, 3 side chain; linkers in the order of their positions; H or OH if unused. Non-standard residues stand in square brackets, D forms with d. Residues, ends and D or L forms follow the SMILES beside them. NMeAbu(3S-Me,4-OC2H4Mor) = CN[C@H](C(=O)O)[C@H](C)COCCN1CCOCC1; MeBmt = C/C=C/C[C@@H](C)[C@@H](O)[C@H](NC)C(=O)O; X13 = C[C@H](CC#N)[C@@H](C(=O)[*:2])N(C)[*:1]; NMeL = CN[C@@H](CC(C)C)C(=O)O; NMeV = CN[C@H](C(=O)O)C(C)C; dNMeA = CN[C@H](C)C(=O)O; Abu = CC[C@H](N)C(=O)O
The molecules listed here are annotated with their CypA Kd.
Give a plain numeric answer without units written out.

Record excerpt, results attached:
{"MOLECULE": "CCCC[C@@H](C)[C@@H](O)[C@H]1C(=O)N[C@@H](CC)C(=O)N(C)[C@H](C)C(=O)N(C)[C@@H]([C@H](C)COCCN2CCOCC2)C(=O)N[C@@H](C(C)C)C(=O)N(C)[C@@H](CC(C)C)C(=O)N[C@@H](C)C(=O)N[C@H](C)C(=O)N(C)[C@@H](CC(C)C)C(=O)N(C)[C@@H](CC(C)C)C(=O)N(C)[C@@H](C(C)C)C(=O)N1C [Compound 2.8.10]", "CypA Kd": 2.1}
{"MOLECULE": "C/C=C/C[C@@H](C)[C@@H](O)[C@H]1C(=O)N[C@@H](CC)C(=O)N(C)[C@H](C)C(=O)N(C)[C@@H]([C@H](C)COCCN2CCOCC2)C(=O)N[C@@H](C(C)C)C(=O)N(C)[C@@H](CC(C)C)C(=O)N[C@@H](C)C(=O)N[C@H](C)C(=O)N(C)[C@@H](CC(C)C)C(=O)N(C)[C@@H](CC(C)C)C(=O)N(C)[C@@H](C(C)C)C(=O)N1C [Compound 2.8.1] (cyclo(A[dA][NMeL][NMeL][NMeV][MeBmt][Abu][dNMeA][NMeAbu(3S-Me,4-OC2H4Mor)]V[NMeL]))", "CypA Kd": 1.4}

-- ask Could you tell me which CypA Kd is on file for C/C=C/C[C@@H](C)[C@@H](O)[C@H]1C(=O)N[C@@H](CC)C(=O)N(C)[C@H](C)C(=O)N(C)[C@@H]([C@H](C)CC#N)C(=O)N[C@@H](C(C)C)C(=O)N(C)[C@@H](CC(C)C)C(=O)N[C@@H](C)C(=O)N[C@H](C)C(=O)N(C)[C@@H](CC(C)C)C(=O)N(C)[C@@H](CC(C)C)C(=O)N(C)[C@@H](C(C)C)C(=O)N1C [Compound 2.10] (cyclo(A[dA][NMeL][NMeL][NMeV][MeBmt][Abu][dNMeA][X13]V[NMeL])) ?
-- reply 1.2

###

The molecules listed here are annotated with their CypB Kd.
Target: cyclophilin B (CypB) (Homo sapiens (Human))
Sequence (P23284 34-216): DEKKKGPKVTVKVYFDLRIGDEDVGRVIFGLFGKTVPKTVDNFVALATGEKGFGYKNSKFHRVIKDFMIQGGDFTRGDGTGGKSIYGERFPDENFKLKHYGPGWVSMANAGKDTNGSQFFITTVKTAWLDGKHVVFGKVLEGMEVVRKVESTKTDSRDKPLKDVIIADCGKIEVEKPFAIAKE
Assay: Inhibitor binding to cyclophilin proteins by SPR, CypB
Design: unit not given here
Conditions: 1:1 binding model
Starred links: 1 amine or outer side, 2 acyl side, 3 side chain; linkers in the order of their positions; H or OH if unused. Non-standard residues stand in square brackets, D forms with d. Residues, ends and D or L forms follow the SMILES beside them. X75 = C[C@H](CCC(C)(C)OC(=O)N1CCN(C)CC1)[C@@H](C(=O)[*:2])N(C)[*:1]; X42 = C[C@H](CCCOC(=O)N(C)C1CCN(C)CC1)[C@@H](C(=O)[*:2])N(C)[*:1]; X25 = CCN1CCO[C@H](COC[C@@H](C)[C@@H](C(=O)[*:2])N(C)[*:1])C1; X33 = CC(C)N1CCOC(COC[C@@H](C)[C@@H](C(=O)[*:2])N(C)[*:1])C1; X67 = C[C@H](CCN1CCOC[C@@H]1C)[C@@H](C(=O)[*:2])N(C)[*:1]; X8 = COCCN1CCN(C[C@@H](C)[C@@H](C(=O)[*:2])N(C)[*:1])CC1; MeBmt = C/C=C/C[C@@H](C)[C@@H](O)[C@H](NC)C(=O)O; NMeL = CN[C@@H](CC(C)C)C(=O)O; NMeV = CN[C@H](C(=O)O)C(C)C; dNMeA = CN[C@H](C)C(=O)O; Abu = CC[C@H](N)C(=O)O

Record excerpt, results attached:
{"MOLECULE": "C/C=C/C[C@@H](C)[C@@H](O)[C@H]1C(=O)N[C@@H](CC)C(=O)N(C)[C@H](C)C(=O)N(C)[C@@H]([C@H](C)COC(=O)N(C)C2CCN(C)CC2)C(=O)N[C@@H](C(C)C)C(=O)N(C)[C@@H](CC(C)C)C(=O)N[C@@H](C)C(=O)N[C@H](C)C(=O)N(C)[C@@H](CC(C)C)C(=O)N(C)[C@@H](CC(C)C)C(=O)N(C)[C@@H](C(C)C)C(=O)N1C", "CypB Kd": 0.5}
{"MOLECULE": "C/C=C/C[C@@H](C)[C@@H](O)[C@H]1C(=O)N[C@@H](CC)C(=O)N(C)[C@H](C)C(=O)N(C)[C@@H]([C@H](C)CCN2CCOC[C@@H]2C)C(=O)N[C@@H](C(C)C)C(=O)N(C)[C@@H](CC(C)C)C(=O)N[C@@H](C)C(=O)N[C@H](C)C(=O)N(C)[C@@H](CC(C)C)C(=O)N(C)[C@@H](CC(C)C)C(=O)N(C)[C@@H](C(C)C)C(=O)N1C [Compound 2.18.4] (cyclo(A[dA][NMeL][NMeL][NMeV][MeBmt][Abu][dNMeA][X67]V[NMeL]))", "CypB Kd": 0.7}
{"MOLECULE": "C/C=C/C[C@@H](C)[C@@H](O)[C@H]1C(=O)N[C@@H](CC)C(=O)N(C)[C@H](C)C(=O)N(C)[C@@H]([C@H](C)COC[C@@H]2CN(CC)CCO2)C(=O)N[C@@H](C(C)C)C(=O)N(C)[C@@H](CC(C)C)C(=O)N[C@@H](C)C(=O)N[C@H](C)C(=O)N(C)[C@@H](CC(C)C)C(=O)N(C)[C@@H](CC(C)C)C(=O)N(C)[C@@H](C(C)C)C(=O)N1C [Compound 2.20.1] (cyclo(A[dA][NMeL][NMeL][NMeV][MeBmt][Abu][dNMeA][X25]V[NMeL]))", "CypB Kd": 0.7}
{"MOLECULE": "C/C=C/C[C@@H](C)[C@@H](O)[C@H]1C(=O)N[C@@H](CC)C(=O)N(C)[C@H](C)C(=O)N(C)[C@@H]([C@H](C)COCC2CN(C(C)C)CCO2)C(=O)N[C@@H](C(C)C)C(=O)N(C)[C@@H](CC(C)C)C(=O)N[C@@H](C)C(=O)N[C@H](C)C(=O)N(C)[C@@H](CC(C)C)C(=O)N(C)[C@@H](CC(C)C)C(=O)N(C)[C@@H](C(C)C)C(=O)N1C (stereo partly drawn) [Compound 2.20.2] (cyclo(A[dA][NMeL][NMeL][NMeV][MeBmt][Abu][dNMeA][X33]V[NMeL]))", "CypB Kd": 0.5}
{"MOLECULE": "C/C=C/C[C@@H](C)[C@@H](O)[C@H]1C(=O)N[C@@H](CC)C(=O)N(C)[C@H](C)C(=O)N(C)[C@@H]([C@H](C)COCCOC(=O)N2CCN(C)CC2)C(=O)N[C@@H](C(C)C)C(=O)N(C)[C@@H](CC(C)C)C(=O)N[C@@H](C)C(=O)N[C@H](C)C(=O)N(C)[C@@H](CC(C)C)C(=O)N(C)[C@@H](CC(C)C)C(=O)N(C)[C@@H](C(C)C)C(=O)N1C (stereo in doubt)", "CypB Kd": 0.5}
{"MOLECULE": "C/C=C/C[C@@H](C)[C@@H](O)[C@H]1C(=O)N[C@@H](CC)C(=O)N(C)[C@H](C)C(=O)N(C)[C@@H]([C@H](C)CCCOC(=O)N(C)C2CCN(C)CC2)C(=O)N[C@@H](C(C)C)C(=O)N(C)[C@@H](CC(C)C)C(=O)N[C@@H](C)C(=O)N[C@H](C)C(=O)N(C)[C@@H](CC(C)C)C(=O)N(C)[C@@H](CC(C)C)C(=O)N(C)[C@@H](C(C)C)C(=O)N1C [Compound 2.19.9] (cyclo(A[dA][NMeL][NMeL][NMeV][MeBmt][Abu][dNMeA][X42]V[NMeL]))", "CypB Kd": 0.4}
{"MOLECULE": "C/C=C/C[C@@H](C)[C@@H](O)[C@H]1C(=O)N[C@@H](CC)C(=O)N(C)[C@H](C)C(=O)N(C)[C@@H]([C@H](C)CCC(C)(C)OC(=O)N2CCN(C)CC2)C(=O)N[C@@H](C(C)C)C(=O)N(C)[C@@H](CC(C)C)C(=O)N[C@@H](C)C(=O)N[C@H](C)C(=O)N(C)[C@@H](CC(C)C)C(=O)N(C)[C@@H](CC(C)C)C(=O)N(C)[C@@H](C(C)C)C(=O)N1C [Compound 2.12.2] (cyclo(A[dA][NMeL][NMeL][NMeV][MeBmt][Abu][dNMeA][X75]V[NMeL]))", "CypB Kd": 6.8}
{"MOLECULE": "C/C=C/C[C@@H](C)[C@@H](O)[C@H]1C(=O)N[C@@H](CC)C(=O)N(C)[C@H](C)C(=O)N(C)[C@@H]([C@H](C)CO[C@H]2CCOC2)C(=O)N[C@@H](C(C)C)C(=O)N(C)[C@@H](CC(C)C)C(=O)N[C@@H](C)C(=O)N[C@H](C)C(=O)N(C)[C@@H](CC(C)C)C(=O)N(C)[C@@H](CC(C)C)C(=O)N(C)[C@@H](C(C)C)C(=O)N1C (stereo in doubt)", "CypB Kd": 0.5}

Here is the next item to consider.
-- ask Could you tell me which CypB Kd is on file for C/C=C/C[C@@H](C)[C@@H](O)[C@H]1C(=O)N[C@@H](CC)C(=O)N(C)[C@H](C)C(=O)N(C)[C@@H]([C@H](C)CN2CCN(CCOC)CC2)C(=O)N[C@@H](C(C)C)C(=O)N(C)[C@@H](CC(C)C)C(=O)N[C@@H](C)C(=O)N[C@H](C)C(=O)N(C)[C@@H](CC(C)C)C(=O)N(C)[C@@H](CC(C)C)C(=O)N(C)[C@@H](C(C)C)C(=O)N1C [Compound 2.5.10] (cyclo([MeBmt][Abu][dNMeA][X8]V[NMeL]A[dA][NMeL][NMeL][NMeV])) ?
-- reply 1.2
